Recorded values, source paper PMC3817407.

Molecular target: T1, ECF12_807
T1 chain: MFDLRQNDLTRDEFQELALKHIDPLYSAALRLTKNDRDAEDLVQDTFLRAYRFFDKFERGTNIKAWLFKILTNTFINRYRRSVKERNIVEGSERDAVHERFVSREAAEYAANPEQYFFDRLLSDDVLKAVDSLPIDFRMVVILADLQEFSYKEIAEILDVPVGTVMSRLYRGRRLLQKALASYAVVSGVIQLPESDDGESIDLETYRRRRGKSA
value-kind: fold repression

- binder: "AS03_1198 (protein) MDKDFDFDNIGKRTPYRTPDNFFEETQRKILERTVDEQRKKRRLKRIIPTVIAVAAVLAGILFTPSLRYMNTDTPSASNILAVDKNNVTTDPVDKWIKELSDEELEELVSFSENDIFLN"
  observed-measurement: 1.43
- binder: "AS35_3582 (protein) MNPQKHSASVAEEQMLAHFRAHAPQQPAPALDQAILAAARRQAAHVEPARSWWRRWLEASRRPRWQAAFASLLGVALVLGLVSHNVLDDAERQARPEVAFSDVPLRDGVAGAAAAKRAMRAPAAPAPLSGEMSEPPALLASYASSGEAPQLMAEAAPPAPAALADRPPAQAAQQAKVQAALAGDFVAQARGKAVAVKPEVLDEALGAVLALREQGKTEQAATQLAELQKRFPGENLVERLERLATIAASARKRP"
  observed-measurement: 10.1
- binder: "AS11_987 (protein) MNKHPDNNLLEAYASGSIDAVSGLVVATHLETCSKCRAYVNQVEASQANTVSESPSEYSPEFDDMLNDIINAEPVNDNVVIQDTAFVNVAGKSFELPKTLVRFSDLVGSWRSYGGKVFSAQIDLGEDARVSLMYIGENVQIPQHTHRGLESTLVLHGGFSDEDGQYEEGDLMVRDASVKHSPFTQEGEDCLCLTVLTEPMIFTQGVARIFNLFGKGLYP"
  observed-measurement: 4.25
- binder: "AS33_423 (protein) MMAMSNTMPDPREPGDVEALLPWYAAGTLNARDARRVADALDRDPALARQYAVILEEYASTIELNESLGAPSSRAMQKLFAAIDAEPARAPGAGQGLGARFAGFFAGLSPKALAWSASVAGLALLLQAGLIGALLTWPHAAPVQTAAYQPQREVARAPASSPAPATVSPPAAAMADRAADAGKSTPPMVMAERSGGPVVRSLAPQSGPRVLVKFAPEARASEIAALLDQYNAVVVDSSRGGLFRLQFGTQSLSKQDQETLIGRLQKEPVVSVVLSAP"
  observed-measurement: 6.47
- binder: "AS22_4450 (protein) MELDDMKHAWQTLEQRLDQQAAQTGQLLGVVHEETVRSSLRPLWVAQTAQLLCALALAIVSARSWIPHTDQPVAVIGGVLLQAWCMALAISAMVQLQLLTQFNVAGPLLRTQHALARLRRWRTRVAPWLGVAFWVLWIAVADALWRALTGQTLPTDWLVLNLLVGVAGGIGTWLGFRRLQRAQHPWLERIDRAHAGTGVIRAERMLEEIARFQRD"
  observed-measurement: 1.67
- binder: "AS27_1331 (protein) MSAADKDPDKHSADADPPLTVELLADLQAGLLDDATAARIRSRVRSDPQAQQILRALNRVRRDVAAMGADPAWGPAARPAVVDSISAALRSARPNSSPGAAHAARPHVHPVRMIAGAAGLCAVATAIGVGAVVDAPPPAPSAPTTAQHITVSKPAPVIPLSRPQVLDLLHHTPDYGPPGGPLGDPSRRTSCLSGLGYPASTPVLGAQPIDIDARPAVLLVIPADTPDKLAVFAVAPHCSAADTGLLASTVVPRA"
  observed-measurement: 2.07
- binder: "AS30_35 (protein) MDKRLQQLREEYKNVQIPKELDIIVEKALQQEPKKKRIVMWPTSAAIAAAILFTALVNINPDAAQAMSKIPVIGKIVKAITFIEIKEEKDQSSIDVKTPALSGLSNKELENSINEKYLKESQQLYKEFIQSTSKNKKGHLSIYSDYETVTDTPDLLSIRRNIETTQASSYTQSRYITIDKKNDILLTLKSLFKDERYIKVISQNIKEQMKQQMKEDPNKIYWLTDEDAEPFKTILPDQTFYITEDHKLVISFDEYEVAPGYMGVTEFTIPTGVISNLLVGERYIR"
  observed-measurement: 3.12
- binder: "AS31_34 (protein) MNKEKLSDHLKSEWKKIDQTANPSIPNQKELLHQLSQMKAEYRKKLLQEIILFVFCALMVVSAAILAFTQAPAVFIVLQVCVLAVLPILIAAEKKRHLGECEVKRG"
  observed-measurement: 3.66
- binder: "AS33_375 (protein) MMALSKKMLEQEPSEIELLLPWHAAGTLNARDARRVEDALARDPELAKQYAAIRGEYEETIHLNESLGAPSARAMQKLFGAIDAEPARETGSLPLSARIATFFASLSPRTLAWSASLGAVALVLQAGIIGAVLMKTQPTTFQTASLSTSAPITRELGAAVAPARALVRFTPEARVADITALLDSYQASIIGDAKGGMFRLQFDKAMSQDELASLLGRMQREKFVNLAVAAP"
  observed-measurement: 7.97
- binder: "AS14_1324 (protein) MSGSRPEPEGHLAEQHLGDRLSALVDGELGHDARERVLAHVATCPKCKAEVDAQRRLKNVFAEAAPPAPSESFLARLQGLPGGGDSDGGGSPFSGLPGGFGASAASGVFGPRRDERFEFDYVPAGSHTPVLPSATSGRGFRIHEVGRHESDRSASRGLRFAFAAAGAVSLAAIALGGVTLGTPDTTTEARGSGSGSNVTPLRTPGSAAATGSESQRRRTAGPLLGQGQRALGDLPVASTTASAPLLPGMPAPAGGDARQQAVRALTTPVTAGAAAMSPLIRPLEAVPPLSLSSWSAAPEVRPPGLLAAPDPAPSPYPAASPAASSSPLR"
  observed-measurement: 8.92
